Source: BigSolDB 2.1

Settings: in ethanol, 308.15 K
Where a SMILES comes first, the peptide text is derived from it.
QUANTITY_NAME: solubility (mole fraction)

>>> df
                                   molecule  observed_result
0  COC(=O)[C@H](Cc1ccccc1)NC(=O)[C@@H](N)CC(=O)O (H-Asp-Phe-OMe)         0.000187

----------
Conditions: in methanol, 288.15 K
Where a SMILES comes first, the peptide text is derived from it.
QUANTITY_NAME: solubility (mole fraction)

>>> df
                                   compound               quantity_name  observed_result
0  COC(=O)[C@H](Cc1ccccc1)NC(=O)[C@@H](N)CC(=O)O (H-Asp-Phe-OMe)  solubility (mole fraction)         0.000665

----------
Details: in ethanol, 313.15 K
Where a SMILES comes first, the peptide text is derived from it.
QUANTITY_NAME: solubility (mole fraction)

>>> print(df.to_string())
                                   compound               quantity_name  observed_result
0  COC(=O)[C@H](Cc1ccccc1)NC(=O)[C@@H](N)CC(=O)O (H-Asp-Phe-OMe)  solubility (mole fraction)         0.000236

----------
Conditions: in ethanol, 278.15 K
Where a SMILES comes first, the peptide text is derived from it.
QUANTITY_NAME: solubility (mole fraction)

>>> print(df.to_string())
                                   compound               quantity_name  observed_result
0  COC(=O)[C@H](Cc1ccccc1)NC(=O)[C@@H](N)CC(=O)O (H-Asp-Phe-OMe)  solubility (mole fraction)         3.16e-05

----------
Conditions: in water, 303.15 K
Where a SMILES comes first, the peptide text is derived from it.
QUANTITY_NAME: solubility (mole fraction)

                                   compound  observed_result
0  COC(=O)[C@H](Cc1ccccc1)NC(=O)[C@@H](N)CC(=O)O (H-Asp-Phe-OMe)         0.000836

----------
Settings: in water, 283.15 K
Where a SMILES comes first, the peptide text is derived from it.
QUANTITY_NAME: solubility (mole fraction)

                                   compound  observed_result
0  COC(=O)[C@H](Cc1ccccc1)NC(=O)[C@@H](N)CC(=O)O (H-Asp-Phe-OMe)         0.000408

----------
Conditions: in methanol, 323.15 K
Where a SMILES comes first, the peptide text is derived from it.
QUANTITY_NAME: solubility (mole fraction)

>>> print(df.to_string())
                                   compound  observed_result
0  COC(=O)[C@H](Cc1ccccc1)NC(=O)[C@@H](N)CC(=O)O (H-Asp-Phe-OMe)          0.00155

----------
Details: in methanol, 333.15 K
Where a SMILES comes first, the peptide text is derived from it.
QUANTITY_NAME: solubility (mole fraction)

                                   molecule               quantity_name  observed_result
0  COC(=O)[C@H](Cc1ccccc1)NC(=O)[C@@H](N)CC(=O)O (H-Asp-Phe-OMe)  solubility (mole fraction)            0.002
